test: Powder dissolution, USP/NF paddle method with HPLC analysis; assay type: physicochemical; conditions: 30 min; 500 mg in 900 mL water, 37 °C, 75 rpm; replicate #2; trihydrate
measured_quantity: Amoxicillin released in solution #2 (%)

{"molecule": "CC1(C)S[C@@H]2[C@H](NC(=O)[C@H](N)c3ccc(O)cc3)C(=O)N2[C@H]1C(=O)O.O.O.O [entry 2, amoxicillin trihydrate]", "measured_quantity": "Amoxicillin released in solution #2", "numeric_value": 99.00}
{"molecule": "CC1(C)S[C@@H]2[C@H](NC(=O)[C@H](N)c3ccc(O)cc3)C(=O)N2[C@H]1C(=O)O.O.O.O [entry 5, amoxicillin trihydrate]", "measured_quantity": "Amoxicillin released in solution #2", "numeric_value": 99.20}
{"molecule": "CC1(C)S[C@@H]2[C@H](NC(=O)[C@H](N)c3ccc(O)cc3)C(=O)N2[C@H]1C(=O)O.O.O.O [entry 1, amoxicillin trihydrate]", "measured_quantity": "Amoxicillin released in solution #2", "numeric_value": 99.56}

====

experiment: Powder dissolution, USP/NF paddle method with HPLC analysis; format: physicochemical; conditions: 10 min; 500 mg in 900 mL water, 37 °C, 75 rpm; mean of 3; trihydrate
measured_quantity: Amoxicillin released in solution Mean (%)

{"compound": "CC1(C)S[C@@H]2[C@H](NC(=O)[C@H](N)c3ccc(O)cc3)C(=O)N2[C@H]1C(=O)O.O.O.O [entry 3, amoxicillin trihydrate]", "numeric_value": 99.25}
{"compound": "CC1(C)S[C@@H]2[C@H](NC(=O)[C@H](N)c3ccc(O)cc3)C(=O)N2[C@H]1C(=O)O.O.O.O [entry 4, amoxicillin trihydrate]", "numeric_value": 87.43}
{"compound": "CC1(C)S[C@@H]2[C@H](NC(=O)[C@H](N)c3ccc(O)cc3)C(=O)N2[C@H]1C(=O)O.O.O.O [entry 6, amoxicillin trihydrate]", "numeric_value": 85.67}
{"compound": "CC1(C)S[C@@H]2[C@H](NC(=O)[C@H](N)c3ccc(O)cc3)C(=O)N2[C@H]1C(=O)O.O.O.O [entry 5, amoxicillin trihydrate]", "numeric_value": 86.84}
{"compound": "CC1(C)S[C@@H]2[C@H](NC(=O)[C@H](N)c3ccc(O)cc3)C(=O)N2[C@H]1C(=O)O.O.O.O [entry 2, amoxicillin trihydrate]", "numeric_value": 99.66}
{"compound": "CC1(C)S[C@@H]2[C@H](NC(=O)[C@H](N)c3ccc(O)cc3)C(=O)N2[C@H]1C(=O)O.O.O.O [entry 1, amoxicillin trihydrate]", "numeric_value": 99.14}

====

assay: Powder dissolution, USP/NF paddle method with HPLC analysis; assay type: physicochemical; conditions: 5 min; 500 mg in 900 mL water, 37 °C, 75 rpm; mean of 3; trihydrate
measured_quantity: Amoxicillin released in solution Mean (%)

{"molecule": "CC1(C)S[C@@H]2[C@H](NC(=O)[C@H](N)c3ccc(O)cc3)C(=O)N2[C@H]1C(=O)O.O.O.O [entry 3, amoxicillin trihydrate]", "unit_name": "%", "numeric_value": 99.78}
{"molecule": "CC1(C)S[C@@H]2[C@H](NC(=O)[C@H](N)c3ccc(O)cc3)C(=O)N2[C@H]1C(=O)O.O.O.O [entry 5, amoxicillin trihydrate]", "unit_name": "%", "numeric_value": 82.14}
{"molecule": "CC1(C)S[C@@H]2[C@H](NC(=O)[C@H](N)c3ccc(O)cc3)C(=O)N2[C@H]1C(=O)O.O.O.O [entry 4, amoxicillin trihydrate]", "unit_name": "%", "numeric_value": 84.17}

The measurements presented in this section are drawn from patent US9820943B2.
